Assay: Displacement of [3H]NCS-382 from GHB binding site in Sprague-Dawley rat brain synaptosomal membranes after 1 hr by scintillation counting method
Would you mind classing the entries by pKi? Ranges: low group = under 5, middle group = from 5 up to 6, high group = 6 and over

                                    compound  category_label
 0  O=C(O)C1=C(c2ccccc2)C(O)CC1 (configuration not stated)       low group
 1  O=C(O)C1CC(O)C1 (configuration not stated)       low group
 2  O=C(O)/C=C/C(O)c1ccc(-c2ccccc2)cc1 (racemic)      high group
 3  O=C(O)[C@@H]1CCC[C@@H](O)C1 (relative stereo)       low group
 4  O=C(O)/C=C/C(O)c1ccc(OCc2ccccc2)cc1 (configuration not stated)      high group
 5       O=C(O)[C@@H]1CC[C@@](O)(c2ccccc2)C1       low group
 6                    O=C(O)/C=C/C1(O)CCCCC1    middle group
 7  COc1cccc(CC2=C(C(=O)O)CCC2O)c1 (configuration not stated)       low group
 8                      O=C(O)/C=C/C1(O)CCC1    middle group
 9                            O=C(O)C1=CCCC1       low group
10  O=C(O)C1=CC(c2ccc(OCc3ccccc3)cc2)CC1 (configuration not stated)    middle group
11  O=C(O)C1=C(c2ccc(Cl)cc2)C(O)CC1 (configuration not stated)       low group
12          O=C(O)C#CC(O)Cc1ccccc1 (racemic)    middle group
13  Cc1ccc(C2=C(C(=O)O)CCC2O)cc1 (configuration not stated)       low group
14  O=C(O)/C=C/C(O)c1ccc(CCc2ccccc2)cc1 (racemic)      high group
15  O=C(O)/C=C/C(O)c1ccc(Cc2ccccc2)cc1 (single isomer, unassigned; (+))      high group
16  O=C(O)[C@@H]1CC[C@@](O)(c2ccc(-c3ccccc3)cc2)C1      high group
17                      O=C(O)CCCO [OXYBATE]    middle group
18                               O=C(O)C#CCO    middle group
19                     O=C(O)/C=C/C1(O)CCCC1    middle group
20                        O=C(O)C#CC1(O)CCC1    middle group
21  O=C(O)/C=C/C(O)c1ccc(OCc2ccc(Br)cc2)cc1 (configuration not stated)      high group
22  O=C(O)C1CCC(O)C1 (configuration not stated)       low group
23  O=C(O)C1=CC(c2ccccc2)CC1 (configuration not stated)       low group
24  O=C(O)/C=C/C(O)c1ccc(Cc2ccccc2)cc1 (racemic)      high group

* * *

Test: Displacement of [3H]NCS-382 from GHB binding site in Sprague-Dawley rat brain synaptosomal membranes after 1 hr by scintillation counting method
pKi: −log10 of the molar value.
This listing pairs molecules with measured pKi.
endpoint-name: pKi

>>> df
                                    molecule  inequality_operator  reported
 0                      O=C(O)C#CC1(O)CCCCC1                    =      5.11
 1                        O=C(O)C#CC1(O)CCC1                    =      5.80
 2  O=C(O)[C@@H]1CCC[C@@H](O)C1 (relative stereo)                    =      4.55
 3  CCC1=C(C(=O)O)CCC1O (configuration not stated)                    <      3.52
 4  CC1=C(C(=O)O)CCC1O (configuration not stated)                    =      4.10
 5                     O=C(O)C1=C[C@H](O)CC1                    =      6.96
 6  O=C(O)C1=CC(c2ccccc2O)CC1 (configuration not stated)                    =      5.34
 7                            O=C(O)C1=CCCC1                    =      4.51
 8                      O=C(O)/C=C/C1(O)CCC1                    =      5.46
 9  O=C(O)C1CC(O)C1 (configuration not stated)                    =      4.15
10  O=C(O)C1=C(c2ccc(Cl)cc2)C(O)CC1 (configuration not stated)                    =      4.15
11  O=C(O)/C=C/C(O)c1ccc(-c2ccccc2)cc1 (racemic)                    =      7.12
12          O=C(O)C#CC(O)Cc1ccccc1 (racemic)                    =      5.46
13                    O=C(O)/C=C/C1(O)CCCCC1                    =      5.37
14  O=C(O)C1CCC(O)C1 (configuration not stated)                    =      4.70
15  O=C(O)C1=C(c2ccccc2)C(O)CC1 (configuration not stated)                    =      4.32
16  Cc1ccc(C2=C(C(=O)O)CCC2O)cc1 (configuration not stated)                    =      3.80
17  O=C(O)C1=CC(c2ccc(-c3ccccc3)cc2)CC1 (configuration not stated)                    =      5.49
18                     O=C(O)/C=C/C1(O)CCCC1                    =      5.51
19  O=C(O)C1=C(c2ccc(Cl)c(Cl)c2)C(O)CC1 (configuration not stated)                    =      4.21
20  O=C(O)[C@]12CC[C@@H](O)[C@H]1C2 (relative stereo)                    <      4.00
